# Test system: NCI-H522 lung
# protocol-description: NCI-60 one-dose screen, 48 h
# condition-description: 10 µM unless noted
Compounds without any hit were thinned out: in the full panel of roughly 83,000, 20% have a hit. The source made the active and inactive calls. Rule for the calls: active = growth percent below 10; inactive = the rest.
Possible outcomes: true (1) for active, false (0) for inactive

> print(dat)
                                    compound      group
 1  COc1ccc(OC)c(C2OC(c3ccc4ccccc4c3O)=NN2C(C)=O)c1 (stereo not given)  false (0)
 2    CC(C)CSc1nc(NN)c(C#N)c(-c2ccc(F)cc2)n1  false (0)
 3  O=C(NNC(=O)N1c2ccccc2C=Cc2ccccc21)c1ccccc1  false (0)
 4              Clc1ccc(-c2nc3ccccc3s2)cc1Cl  false (0)
 5  COc1ccc(Nc2nn3c(C)cc(C)nc3c2C(=O)Nc2ccc(C)cc2)c(OC)c1  false (0)
 6                           COC(OC)c1ccccc1  false (0)
 7  O=[N+]([O-])c1cccc(-c2nc3sccn3c2-c2ccnc(NCCCNS(=O)(=O)c3ccc(C(F)(F)F)cc3)n2)c1  false (0)
 8  O=C(Nc1cccc(-n2cc(-c3ccncc3)c(-c3ccc(Cl)c(O)c3)n2)c1)Nc1cccc(C(F)(F)F)c1   true (1)
 9  S=c1[nH]nc(-c2cc3ccc2CCc2ccc(cc2)CC3)n1C1CC1  false (0)
10  Cc1ccc(-c2nc(C#N)c(S(=O)(=O)n3nc(-c4ccccc4)cc3N)o2)cc1   true (1)
